Biological target: guinea pig right atria (Cavia porcellus)
Sequence (H0W3H1 1-470): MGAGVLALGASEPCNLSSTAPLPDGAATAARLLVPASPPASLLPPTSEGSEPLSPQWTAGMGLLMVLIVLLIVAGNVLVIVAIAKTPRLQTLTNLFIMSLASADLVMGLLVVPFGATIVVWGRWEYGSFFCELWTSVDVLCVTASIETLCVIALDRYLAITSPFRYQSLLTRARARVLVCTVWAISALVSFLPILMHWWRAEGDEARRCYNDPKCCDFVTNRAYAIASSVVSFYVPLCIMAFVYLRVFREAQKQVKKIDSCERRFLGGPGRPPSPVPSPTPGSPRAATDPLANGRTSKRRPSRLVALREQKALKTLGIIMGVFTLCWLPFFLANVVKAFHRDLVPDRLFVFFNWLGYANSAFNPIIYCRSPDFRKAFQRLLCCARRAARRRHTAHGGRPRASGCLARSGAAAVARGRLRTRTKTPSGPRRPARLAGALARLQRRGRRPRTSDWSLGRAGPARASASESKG
Assay: β-blocking activity in vitro, guinea pig right atria (rate response to isoproterenol)
Type: cell-based
Conditions: read-out: pA2 Atria (converted)
Respond with true for Kb values of 800 nM and above, false for values below.

1) CCOC(=O)CCNCC(O)COc1ccccc1C(=O)OC (stereo not drawn) [VIII, Hemihydrate]: false
2) CCOC(=O)CCNCC(O)COc1ccc(CCC(=O)OC)cc1.Cl (stereo not drawn) [Example VII, Hydrochloride]: true
3) Cc1ccccc1OCC(O)CNCCC(=O)OCC(F)(F)F (stereo not drawn): true
4) Cc1ccccc1OCC(O)CNCCC(=O)Oc1ccc(F)cc1 (stereo not drawn): true
5) Cc1ccccc1OCC(O)CNCCC(=O)Oc1ccccc1 (stereo not drawn): false

These data points were gathered from patent US4450173A.
